- Assay Details: recombinant UMI read abundance after kanamycin selection (control-corrected) (log10(CPM+1)); higher = more efficient recombination; extreme values may be limits of the assay; sequences stand for … in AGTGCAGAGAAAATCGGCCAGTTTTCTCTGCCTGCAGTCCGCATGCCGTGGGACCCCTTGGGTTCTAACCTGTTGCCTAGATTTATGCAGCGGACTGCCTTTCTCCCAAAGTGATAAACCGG…AGGTTGGTTTCACT; site = the 11-nt donor
Readout Type: recombinant UMI read abundance (log10)
Give the figure by itself; no unit, no explanation.

Task: Would you mind telling me what recombinant UMI read abundance (log10) value was observed for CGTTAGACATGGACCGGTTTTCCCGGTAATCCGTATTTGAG (site CGGTAGACTCT) ?
Output: 0.157

Task: Would you mind telling me what recombinant UMI read abundance (log10) value was observed for CAATTCCCATGGACCGGTTTTCCCGGTAATCCGTATTTGAT (site CAATTCCCTAT) ?
Output: 1.7

Task: Would you mind telling me what recombinant UMI read abundance (log10) value was observed for AAGGTGCCATGGACCGGTTTTCCCGGTAATCCGTATTTGAT (site AAGGTGCCTAT) ?
Output: 0.438

Task: Would you mind telling me what recombinant UMI read abundance (log10) value was observed for AGGTTTCCATGGACCGGTTTTCCCGGTAATCCGTATTTGTG (site AGGTTACCTCA) ?
Output: 0.0337

Task: Would you mind telling me what recombinant UMI read abundance (log10) value was observed for AGGAACACATGGACCGGTTTTCCCGGTAATCCGTATTTGCC (site AGGAACACTGG) ?
Output: 3.08

Task: Would you mind telling me what recombinant UMI read abundance (log10) value was observed for GCGTTAGCATGGACCGGTTTTCCCGGTAATCCGTATTTGTG (site ACGTTAGCTCA) ?
Output: 0.84

Task: Would you mind telling me what recombinant UMI read abundance (log10) value was observed for CAAATGGCATGGACCGGTTTTCCCGGTAATCCGTATTTGCA (site CAAATGGCTTG) ?
Output: 2.04

Task: Would you mind telling me what recombinant UMI read abundance (log10) value was observed for CAATCGACATGGACCGGTTTTCCCGGTAATCCGTATTTGGG (site CATTCGACTCC) ?
Output: 0.0172

Task: Would you mind telling me what recombinant UMI read abundance (log10) value was observed for CAGGAATCATGGACCGGTTTTCCCGGTAATCCGTATTTGCG (site GAGGAATCTCG) ?
Output: 0.395

Task: Would you mind telling me what recombinant UMI read abundance (log10) value was observed for GTCGAGGCATGGACCGGTTTTCCCGGTAATCCGTATTTGTG (site GTTGAGGCTCA) ?
Output: 0.0142

---

- Assay Details: recombinant barcode read abundance after kanamycin selection (control-corrected) (log10(CPM+1)); higher = more efficient recombination; sequences stand for … in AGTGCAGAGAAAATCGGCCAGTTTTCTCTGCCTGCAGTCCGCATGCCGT…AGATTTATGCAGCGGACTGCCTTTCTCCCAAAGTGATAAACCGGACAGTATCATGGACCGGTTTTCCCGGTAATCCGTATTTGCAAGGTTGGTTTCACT; site = the 11-nt target
Lab note: anything with recombinant barcode read abundance (log10) at or over 0.5 counts as Fulfilled; the rest go in Not fulfilled.

Task: Please tell me: is the sequence CACGAGACTTGGGTTCTAACCTGTTGCCT (site CACGAGACTAG) at or over 0.5 in terms of recombinant barcode read abundance (log10)?
Output: Fulfilled

Task: Please tell me: is the sequence GTCCAGCCTTGGGTTCTAACCTGTTGCAC (site GTCCAGCCTGT) at or over 0.5 in terms of recombinant barcode read abundance (log10)?
Output: Fulfilled

Task: Please tell me: is the sequence TCACAGACTTGGGTTCTAACCTGTTGCCG (site TCACAGACTCG) at or over 0.5 in terms of recombinant barcode read abundance (log10)?
Output: Fulfilled

Task: Please tell me: is the sequence GCCATACCTTGGGTTCTAACCTGTTGCCT (site GCCAGACCTAG) at or over 0.5 in terms of recombinant barcode read abundance (log10)?
Output: Not fulfilled

Task: Please tell me: is the sequence ACTCTGGCTTGGGTTCTAACCTGTTGCCT (site ACGCTGGCTAG) at or over 0.5 in terms of recombinant barcode read abundance (log10)?
Output: Not fulfilled

Task: Please tell me: is the sequence GTCCCTACTTGGGTTCTAACCTGTTGCCG (site GTCACTACTCG) at or over 0.5 in terms of recombinant barcode read abundance (log10)?
Output: Not fulfilled

Task: Please tell me: is the sequence CGATCCACTTGGGTTCTAACCTGTTGCCT (site GGATCCACTAG) at or over 0.5 in terms of recombinant barcode read abundance (log10)?
Output: Fulfilled

Task: Please tell me: is the sequence GCTGCGACTTGGGTTCTAACCTGTTGCCT (site GCCGCGACTAG) at or over 0.5 in terms of recombinant barcode read abundance (log10)?
Output: Not fulfilled

Task: Please tell me: is the sequence AGGATAACTTGGGTTCTAACCTGTTGCCT (site AGGATACCTAG) at or over 0.5 in terms of recombinant barcode read abundance (log10)?
Output: Not fulfilled

Task: Please tell me: is the sequence TGAGATGCTTGGGTTCTAACCTGTTGCCT (site TGACATGCTAG) at or over 0.5 in terms of recombinant barcode read abundance (log10)?
Output: Not fulfilled

Task: Please tell me: is the sequence TGTAGGACTTGGGTTCTAACCTGTTGCCT (site TGTAGGACTAG) at or over 0.5 in terms of recombinant barcode read abundance (log10)?
Output: Fulfilled

Task: Please tell me: is the sequence TATAAAACTTGGGTTCTAACCTGTTGCCT (site TATAGAACTAG) at or over 0.5 in terms of recombinant barcode read abundance (log10)?
Output: Not fulfilled

Task: Please tell me: is the sequence AAAATCTCTTGGGTTCTAACCTGTTGCCT (site AAACTCGCTAG) at or over 0.5 in terms of recombinant barcode read abundance (log10)?
Output: Not fulfilled

Task: Please tell me: is the sequence TTGGCCGCTTGGGTTCTAACCTGTTGCCT (site TTGGCCGCTAG) at or over 0.5 in terms of recombinant barcode read abundance (log10)?
Output: Fulfilled

Task: Please tell me: is the sequence GTCGGAGCTTGGGTTCTAACCTGTTGCAG (site GTCGGAGCTCA) at or over 0.5 in terms of recombinant barcode read abundance (log10)?
Output: Fulfilled

Task: Please tell me: is the sequence GAGTTACCTTGGGTTCTAACCTGTTGCGT (site GAGTTGCCTAC) at or over 0.5 in terms of recombinant barcode read abundance (log10)?
Output: Not fulfilled

Task: Please tell me: is the sequence TAGAACTCTTGGGTTCTAACCTGTTGCCA (site TAGAACTCTAG) at or over 0.5 in terms of recombinant barcode read abundance (log10)?
Output: Not fulfilled

Task: Please tell me: is the sequence ATACGTACTTGGGTTCTAACCTGTTGCCT (site ATACGTACTAG) at or over 0.5 in terms of recombinant barcode read abundance (log10)?
Output: Fulfilled

Task: Please tell me: is the sequence CCAAGCCCTTGGGTTCTAACCTGTTGCCT (site CCAAGCACTAG) at or over 0.5 in terms of recombinant barcode read abundance (log10)?
Output: Not fulfilled

Task: Please tell me: is the sequence GACATCACTTGGGTTCTAACCTGTTGCCT (site GACATCGCTAG) at or over 0.5 in terms of recombinant barcode read abundance (log10)?
Output: Not fulfilled

Task: Please tell me: is the sequence TACACAGCTTGGGTTCTAACCTGTTGCCT (site TACACAGCTAG) at or over 0.5 in terms of recombinant barcode read abundance (log10)?
Output: Fulfilled

Task: Please tell me: is the sequence AACGACGCTTGGGTTCTAACCTGTTGCCT (site ACCGAGGCTAG) at or over 0.5 in terms of recombinant barcode read abundance (log10)?
Output: Not fulfilled

Task: Please tell me: is the sequence ATCTTACCTTGGGTTCTAACCTGTTGCCT (site ATCTTAACTAG) at or over 0.5 in terms of recombinant barcode read abundance (log10)?
Output: Not fulfilled

Task: Please tell me: is the sequence GCGCACACTTGGGTTCTAACCTGTTGCCT (site CCGCACACTAG) at or over 0.5 in terms of recombinant barcode read abundance (log10)?
Output: Not fulfilled

Task: Please tell me: is the sequence GGGGCTTCTTGGGTTCTAACCTGTTGCTT (site GGGGCCTCTAA) at or over 0.5 in terms of recombinant barcode read abundance (log10)?
Output: Fulfilled

Task: Please tell me: is the sequence GGCTATGCTTGGGTTCTAACCTGTTGCCT (site GTCTATGCTAG) at or over 0.5 in terms of recombinant barcode read abundance (log10)?
Output: Not fulfilled

Task: Please tell me: is the sequence GCGCGTTCTTGGGTTCTAACCTGTTGCCT (site GCGCGTTCTAG) at or over 0.5 in terms of recombinant barcode read abundance (log10)?
Output: Fulfilled

Task: Please tell me: is the sequence TCAGGCCCTTGGGTTCTAACCTGTTGCCT (site TCAGGCCCTAG) at or over 0.5 in terms of recombinant barcode read abundance (log10)?
Output: Fulfilled

Task: Please tell me: is the sequence TAAAAGGCTTGGGTTCTAACCTGTTGCCT (site TAAAAGTCTAG) at or over 0.5 in terms of recombinant barcode read abundance (log10)?
Output: Not fulfilled

Task: Please tell me: is the sequence GTCACTACTTGGGTTCTAACCTGTTGCCG (site GTCACTACTCG) at or over 0.5 in terms of recombinant barcode read abundance (log10)?
Output: Fulfilled
